Origin of measurements: patent US12492188B2

Molecular target: human TLR9 (Homo sapiens)
Construct: host or cells: HEK-Blue cells (HEK293-derived reporter line)
Sequence (Q9NR96 26-1032): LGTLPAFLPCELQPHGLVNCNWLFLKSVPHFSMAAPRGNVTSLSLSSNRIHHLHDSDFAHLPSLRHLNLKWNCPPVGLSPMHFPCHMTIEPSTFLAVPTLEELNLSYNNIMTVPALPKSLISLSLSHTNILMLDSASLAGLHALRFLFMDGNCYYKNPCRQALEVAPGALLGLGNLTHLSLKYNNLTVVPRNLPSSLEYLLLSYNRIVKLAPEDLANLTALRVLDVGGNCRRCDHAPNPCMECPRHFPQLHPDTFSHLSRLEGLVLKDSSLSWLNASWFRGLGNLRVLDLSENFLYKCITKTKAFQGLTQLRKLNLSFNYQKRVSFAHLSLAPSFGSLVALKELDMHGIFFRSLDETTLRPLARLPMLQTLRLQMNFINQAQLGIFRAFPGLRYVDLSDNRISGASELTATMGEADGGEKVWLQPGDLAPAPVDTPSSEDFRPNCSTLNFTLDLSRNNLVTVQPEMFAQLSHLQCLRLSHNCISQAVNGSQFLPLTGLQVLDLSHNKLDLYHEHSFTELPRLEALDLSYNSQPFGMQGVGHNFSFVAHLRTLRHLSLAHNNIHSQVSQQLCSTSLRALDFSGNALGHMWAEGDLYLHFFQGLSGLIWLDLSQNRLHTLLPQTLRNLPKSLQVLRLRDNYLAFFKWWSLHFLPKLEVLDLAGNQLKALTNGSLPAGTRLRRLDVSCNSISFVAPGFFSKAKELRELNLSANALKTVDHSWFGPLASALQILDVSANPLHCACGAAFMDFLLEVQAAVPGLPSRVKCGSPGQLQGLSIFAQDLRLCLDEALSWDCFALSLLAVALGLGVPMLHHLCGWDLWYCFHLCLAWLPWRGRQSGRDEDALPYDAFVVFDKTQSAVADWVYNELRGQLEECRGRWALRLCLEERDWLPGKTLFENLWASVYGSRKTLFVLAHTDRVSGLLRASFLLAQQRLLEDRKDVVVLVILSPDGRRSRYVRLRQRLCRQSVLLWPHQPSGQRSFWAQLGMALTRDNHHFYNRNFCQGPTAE
Test: TLR9 inhibition reporter assay (HEK-Blue cells, secreted embryonic alkaline phosphatase reporter)
Type: cell-based
Settings: HEK-Blue cells overexpressing human TLR9, stimulated with ODN2006 5 nM; read-out: TLR 9 IC50
Measure Name: IC50 (nM)
Please state the figure in nM; there is no need to write the unit.

[[record]]
molecule = "CCn1c(-c2ccc(OC)c(OC)c2)nc2cc(C3CCN(C4CCN(C(C)C)CC4)CC3)ccc21 (single isomer, unassigned)"
measure_name = "IC50"
numeric_result = 249

[[record]]
molecule = "Cn1c(-c2ccc(S(C)(=O)=O)cc2)nc2cc(C3CCN(C4CCN(CC5CC5)CC4)CC3)cc(F)c21"
measure_name = "IC50"
numeric_result = 108


As a next step, examine the molecule that follows.
[in] Tell me its IC50 given Cn1c(-c2ccc(S(C)(=O)=O)cc2)nc2cc(C3CCN(C4CC5CCC(C4)N5C4CCOCC4)CC3)c(F)cc21 (single isomer, unassigned) [Example 255] as the entry.
[out] 72
